Each entry below lists one item and its recorded cAMP AlphaScreen, Schild analysis against NDP-MSH (blocks m5+m3): antagonist pA2 value.
Biological target: mouse melanocortin-4 receptor (mouse, UniProt P56450 1-332)
Sequence (P56450 whole entry): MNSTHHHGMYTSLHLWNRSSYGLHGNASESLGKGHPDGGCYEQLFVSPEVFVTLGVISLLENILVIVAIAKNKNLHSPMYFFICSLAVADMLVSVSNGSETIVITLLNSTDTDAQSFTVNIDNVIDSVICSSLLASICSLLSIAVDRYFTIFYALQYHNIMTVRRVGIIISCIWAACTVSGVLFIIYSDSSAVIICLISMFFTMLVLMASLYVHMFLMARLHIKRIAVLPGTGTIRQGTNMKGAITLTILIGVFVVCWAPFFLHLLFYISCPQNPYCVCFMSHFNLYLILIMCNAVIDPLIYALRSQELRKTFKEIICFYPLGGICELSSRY
Assay: cell-based or functional assay
Non-standard residues stand in square brackets, D forms with d. dPhe(4-I) = N[C@H](Cc1ccc(I)cc1)C(=O)O; d2Nal = N[C@H](Cc1ccc2ccccc2c1)C(=O)O; Tic = O=C(O)[C@@H]1Cc2ccccc2CN1
QUANTITY KIND: cAMP AlphaScreen, Schild analysis against NDP-MSH (blocks m5+m3): antagonist pA2

BINDER: Ac-FR[dPhe(4-I)][Tic]-NH2 [compound 22]
TEST VALUE: 6.3 -Log(Ki)

BINDER: Ac-RR[dPhe(4-I)][d2Nal]-NH2 [Ac-Arg-Arg-(pI)DPhe-DNal(2′)-NH2]
TEST VALUE: 6.4 -Log(Ki)

BINDER: RRFX (HELM PEPTIDE1{[ac].R.R.[O=C([C@@H](Cc1ccc(I)cc1)N[*:1])[*:2]].[Tic].[am]}$$$$V2.0; SMILES CC(=O)N[C@@H](CCCNC(=N)N)C(=O)N[C@@H](CCCNC(=N)N)C(=O)N[C@H](Cc1ccc(I)cc1)C(=O)N1Cc2ccccc2C[C@H]1C(N)=O) [Ac-Arg-Arg-(pI)DPhe-Tic-NH2]
TEST VALUE: 7.8 -Log(Ki)
